test: M. tuberculosis H37Rv growth inhibitors, H37Rv strain (AID 1626); conditions: hits give high values, concentration not given here;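 note: bacteria incubated seven days before Alamar blue readout; 0% = bacteria only wells and 100% = bacteria with antibiotic wells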
Out of some 220,000 compounds screened, about 2,000 (0.91%) were called active. About 2% were inconclusive and are not listed. Only a sample is shown. Potency and affinity values are given separately.

[
  {
    "compound": "C=CCN(CC=C)S(=O)(=O)c1ccc(NC(=S)NC(=O)/C=C/c2cccc3ccccc23)cc1",
    "inhibition (%)": 2.67
  },
  {
    "compound": "CC(=O)OC(C(=O)NC1CCCCC1)c1ccc(C)cc1 (centres undefined)",
    "inhibition (%)": -5.04
  },
  {
    "compound": "COC(=O)CSc1nc(N)c(C#N)c(-c2ccc(O)cc2)c1C#N",
    "inhibition (%)": -2.05
  },
  {
    "compound": "CC(C)(C)C(=O)Nc1nnc(Cc2ccccc2)s1",
    "inhibition (%)": 10.8
  },
  {
    "compound": "CCOC(=O)C1CCN(Cc2nnnn2CCc2ccccc2)CC1",
    "inhibition (%)": -3.91
  },
  {
    "compound": "CC(=O)c1ccc(NC(=O)N2CCN(c3ccc(C)cc3)C(C)C2)cc1 (centres undefined)",
    "inhibition (%)": 0.07
  },
  {
    "compound": "O=C(O)c1c2c(nc3ccc(Cl)cc13)CCC2",
    "inhibition (%)": -3.42
  },
  {
    "compound": "COc1ccc(NC(=O)COC(=O)Cc2ccc(Br)cc2)cc1",
    "inhibition (%)": 15.8
  },
  {
    "compound": "CCCc1ccc(NS(=O)(=O)c2c(C)oc(C)c2C(=O)OC)cc1",
    "inhibition (%)": 3.72
  },
  {
    "compound": "CCOC(=O)CSc1nc(C)cc(C)c1C#N",
    "inhibition (%)": -7.74
  },
  {
    "compound": "O=C(c1cc(-c2ccc(Cl)cc2)n(-c2ccc(Cl)c(Cl)c2)n1)N1CCOCC1",
    "inhibition (%)": -1.31
  },
  {
    "compound": "CCCOc1ccc(OC(=O)c2ccc(Br)o2)cc1",
    "inhibition (%)": 3.47
  },
  {
    "compound": "COC(=O)CSc1nc(N)c(C#N)c(C(C)C)c1C#N",
    "inhibition (%)": 0.87
  },
  {
    "compound": "CC1(C)Cc2c(sc(NC(=O)Cc3ccccc3)c2C#N)CO1",
    "inhibition (%)": -0.57
  },
  {
    "compound": "COCCNC(=O)CSc1c2c(nc3ccc(Cl)cc13)CCCC2",
    "inhibition (%)": 0.54
  },
  {
    "compound": "CCCCOc1cccc(-c2nnc(N)s2)c1",
    "inhibition (%)": 37.6
  },
  {
    "compound": "Cn1c(N)c(C(=O)COC(=O)CCCc2nc3ccccc3s2)c(=O)n(C)c1=O",
    "inhibition (%)": 3.44
  },
  {
    "compound": "O=c1[nH]c(=O)n(Cc2ccccc2Cl)c(O)c1C=Nc1ccc(F)cc1",
    "inhibition (%)": 3.81
  },
  {
    "compound": "CC(=O)c1ccc(OC(=O)c2ccc(Br)o2)cc1",
    "inhibition (%)": -1.59
  },
  {
    "compound": "CCCCOc1cccc(C(=O)O)c1",
    "inhibition (%)": -6.88
  },
  {
    "compound": "NC(=O)c1ccc(-c2csnn2)cc1",
    "inhibition (%)": 0.58
  },
  {
    "compound": "Cn1c2ccc(F)cc2c2ncn(CC3CCCO3)c(=O)c21 (centres undefined)",
    "inhibition (%)": -14
  },
  {
    "compound": "CC(C)(C)C(=O)Nc1nc(NC(=O)C(C)(C)C)nc(-c2ccccc2Cl)n1",
    "inhibition (%)": -0.83
  },
  {
    "compound": "CCCOC(=O)CSc1nc(N)c(C#N)c(CC)c1C#N",
    "inhibition (%)": -6.1
  }
]
